Values from ChEMBL document CHEMBL1857833

# Tested on: Trypanosoma brucei
# experiment: DNDI: Inhibition of Human African Trypanosomiasis, SBRI 427, in vitro at 2 ug.mL-1
# Assay type: functional
Out of some 4,400 compounds screened, about 390 (8.9%) showed an effect of 50% or more. For the sample, strong results were picked, then their nearest neighbours and some compounds at random.
# label = bin(measured % inhibition), where bins are lower = under 20%, middle = from 20% up to 80%, upper = 80% and over

molecule	class_label
CCOc1cccc(-c2nc(CN(CCC#N)C3CCCCC3)co2)c1	lower
CC(C)N/C(=N\O)c1cccnc1OCC(C)(C)C	upper
CC(C)N/C(=N\O)c1cccnc1Oc1ccc2ccccc2c1	middle
CCCN/C(=N\O)c1ccc(C)nc1OCc1cccc(F)c1	lower
CCCN/C(=N\O)c1cccnc1Oc1ccc2ccccc2c1	middle
CCC(C)(C)N/C(=N\O)c1cccnc1Oc1ccc2ccccc2c1	upper
COc1cc(-c2nc(CN3CCCCC3C)co2)cc(OC)c1OC (stereo unspecified)	lower
Cc1cccc(Oc2nc(C)ccc2/C(=N/O)NCC(C)(C)C)c1	upper
Cc1ccc(CN/C(=N\O)c2cccnc2Oc2ccc3ccccc3c2)o1	lower
CCC(C)(C)N/C(=N\O)c1ccc(C)nc1Oc1cccc(F)c1	lower
